System: 624824-186-R-J3-PDC multicell spheroids, viability
protocolSummary: Anticancer human tumor 624824-186-R-J3-PDC patient-derived colon adenocarcinoma cell line growth inhibition [PI3K]
particulars: curve of first compound; second compound 1 µM
# IC50 annotations

Worked examples, 4 compounds total:
Cn1ncc(Cl)c1-c1cc(C(=O)NC(CN)Cc2cccc(F)c2)sc1Cl (stereo not drawn) + Cc1nc(NC(=O)N2CCCC2C(N)=O)sc1-c1ccnc(C(C)(C)C(F)(F)F)c1 | 2.85 µM
CC(Cn1ccc(-c2ccc(C#N)c(Cl)c2)n1)NC(=O)c1cc(C(C)O)[nH]n1 (stereo not drawn) + CC(Nc1ncnc2nc[nH]c12)c1cc2cccc(Cl)c2c(=O)n1-c1ccccc1 | > 10 µM
CC(C)n1nc(-c2ccc3oc(N)nc3c2)c2c(N)ncnc21 + CC(Nc1ccc2c(c1)OCCn1cc(N3C(=O)OCC3C(F)F)nc1-2)C(N)=O | 0.0422 µM
Cn1ncnc1[C@H]1c2n[nH]c(=O)c3cc(F)cc(c23)N[C@@H]1c1ccc(F)cc1 + CC(Nc1ccc2c(c1)OCCn1cc(N3C(=O)OCC3C(F)F)nc1-2)C(N)=O | > 0.1 µM

Request: Request the reported IC50 associated with CC(Cn1ccc(-c2ccc(C#N)c(Cl)c2)n1)NC(=O)c1cc(C(C)O)[nH]n1 (stereo not drawn) + Cc1nc(NC(=O)N2CCCC2C(N)=O)sc1-c1ccnc(C(C)(C)C(F)(F)F)c1
Result: > 10 µM

Request: Could you do the same for CC1(C)CCC(CN2CCN(c3ccc(C(=O)NS(=O)(=O)c4ccc(NCC5CCOCC5)c([N+](=O)[O-])c4)c(Oc4cnc5[nH]ccc5c4)c3)CC2)=C(c2ccc(Cl)cc2)C1 + CC(Nc1ncnc2nc[nH]c12)c1cc2cccc(Cl)c2c(=O)n1-c1ccccc1 , please?
Result: 7.87 µM

Request: Could you do the same for C[C@@H](NC(=O)c1ncnc(N)c1Cl)c1ncc(C(=O)Nc2cc(C(F)(F)F)c(Cl)cn2)s1 + COc1c(OCCCN2CCOCC2)ccc2c3n(c(=NC(=O)c4cnc(N)nc4)nc12)CCN3 , please?
Result: < 0.0316 µM

Request: Could you do the same for C#Cc1c(F)ccc2cc(O)cc(-c3ncc4c(N5CC6CCC(C5)N6)nc(OCC56CCCN5CC(F)C6)nc4c3F)c12 (stereo not drawn) + CC(Nc1ccc2c(c1)OCCn1cc(N3C(=O)OCC3C(F)F)nc1-2)C(N)=O , please?
Result: > 10 µM

* * *

Tested on: 624824-186-R-J3-PDC multicell spheroids, viability
protocolSummary: Anticancer human tumor 624824-186-R-J3-PDC cell line growth inhibition [PI3K];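 further: spheroids exposed to agents for seven days before luminescence read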;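 on viability, T/C: luminescent signal used as a stand-in for spheroid viability; percent viability relative to DMSO vehicle control wells taken as 100%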
particulars: second compound 0.01 µM; first compound 3.16 µM; stronger effect = lower value
quantityName: viability, T/C (%)
Write the answer as a number in %, unit excluded.

Cn1ncc(Cl)c1-c1cc(C(=O)NC(CN)Cc2cccc(F)c2)sc1Cl (stereo not given) + COc1c(OCCCN2CCOCC2)ccc2c3n(c(=NC(=O)c4cnc(N)nc4)nc12)CCN3 | 57.3
CC(Cn1ccc(-c2ccc(C#N)c(Cl)c2)n1)NC(=O)c1cc(C(C)O)[nH]n1 (stereo not given) + CC(Nc1ccc2c(c1)OCCn1cc(N3C(=O)OCC3C(F)F)nc1-2)C(N)=O | 103
C#Cc1c(F)ccc2cc(O)cc(-c3ncc4c(N5CC6CCC(C5)N6)nc(OCC56CCCN5CC(F)C6)nc4c3F)c12 (stereo not given) + CC(Nc1ccc2c(c1)OCCn1cc(N3C(=O)OCC3C(F)F)nc1-2)C(N)=O | 103

Request: Request the reported viability, T/C associated with C=CC(=O)N1CCN(c2nc(=O)n(-c3c(C)ccnc3C(C)C)c3nc(-c4c(O)cccc4F)c(F)cc23)C(C)C1 (stereo not given) + CC(Nc1ccc2c(c1)OCCn1cc(N3C(=O)OCC3C(F)F)nc1-2)C(N)=O
Result: 99.6

Request: Could you do the same for Cn1nccc1Nc1nccc(-c2ccn(C(CO)c3ccc(Cl)c(F)c3)c(=O)c2)n1 (stereo not given) + COc1c(OCCCN2CCOCC2)ccc2c3n(c(=NC(=O)c4cnc(N)nc4)nc12)CCN3 , please?
Result: 41.8

Origin of measurements: PubChem BioAssay AID1963977
